test system: HepG2; assay: Cytotoxicity against human HepG2 cells after 72 hrs by MTT assay; assay type: functional, cell-based; details: HepG2, 72 h
measure.name: EC50 (µM)
Supply the numeric figure in µM, leaving out any unit text.

A selection of reference data follows.
[
  {
    "structure.smiles.string": "CCS[C@@H]1[C@H](SCC)[C@@H](Cn2cc(-c3ccc(C)cc3)nn2)O[C@H]1n1ccc(=O)[nH]c1=O",
    "measure.unit": "µM",
    "EC50": 19.9
  },
  {
    "structure.smiles.string": "CCS[C@@H]1[C@H](SCC)[C@@H](Cn2cc(-c3cccs3)nn2)O[C@H]1n1ccc(=O)[nH]c1=O",
    "measure.unit": "µM",
    "EC50": 91.8
  },
  {
    "structure.smiles.string": "CCS[C@@H]1[C@H](SCC)[C@@H](Cn2cc(-c3ccccc3C(F)(F)F)nn2)O[C@H]1n1cc(C)c(=O)[nH]c1=O",
    "measure.unit": "µM",
    "EC50": 22.1
  },
  {
    "structure.smiles.string": "CCS[C@@H]1[C@H](SCC)[C@@H](Cn2cc(-c3ccccc3)nn2)O[C@H]1n1ccc(=O)[nH]c1=O",
    "measure.unit": "µM",
    "EC50": 8.38
  }
]

Then this compound:
Tell me EC50 reported for CCS[C@@H]1[C@H](SCC)[C@@H](Cn2cc(-c3ccccc3)nn2)O[C@H]1n1cc(C)c(=O)[nH]c1=O 65

* * *

test system: HepG2; experiment: Cytotoxicity against human HepG2 cells after 72 hrs by MTT assay; type: functional, cell-based; settings: HepG2, 72 h
Here, each record is paired with measured EC50 data.
Supply the numeric figure in µM, leaving out any unit text.

A selection of reference data follows.
[
  {
    "structure.smiles.string": "CCS[C@@H]1[C@H](SCC)[C@@H](Cn2cc(-c3ccccc3)nn2)O[C@H]1n1ccc(N)nc1=O",
    "assayed.target": "HepG2",
    "measure.unit": "µM",
    "EC50": 57.1
  },
  {
    "structure.smiles.string": "CCS[C@@H]1[C@H](SCC)[C@@H](Cn2cc(-c3ccc(OC)cc3)nn2)O[C@H]1n1ccc(=O)[nH]c1=O",
    "assayed.target": "HepG2",
    "measure.unit": "µM",
    "EC50": 16.2
  },
  {
    "structure.smiles.string": "CCS[C@@H]1[C@H](SCC)[C@@H](Cn2cc(-c3ccc(C)cc3)nn2)O[C@H]1n1cc(C)c(=O)[nH]c1=O",
    "assayed.target": "HepG2",
    "measure.unit": "µM",
    "EC50": 21.6
  },
  {
    "structure.smiles.string": "CCS[C@@H]1[C@H](SCC)[C@@H](Cn2cc(-c3ccc(F)cc3)nn2)O[C@H]1n1ccc(=O)[nH]c1=O",
    "assayed.target": "HepG2",
    "measure.unit": "µM",
    "EC50": 22.6
  },
  {
    "structure.smiles.string": "CCS[C@@H]1[C@H](SCC)[C@@H](Cn2cc(-c3ccccc3C(F)(F)F)nn2)O[C@H]1n1ccc(=O)[nH]c1=O",
    "assayed.target": "HepG2",
    "measure.unit": "µM",
    "EC50": 30.3
  },
  {
    "structure.smiles.string": "CCS[C@@H]1[C@H](SCC)[C@@H](Cn2cc(-c3ccc(OC)cc3)nn2)O[C@H]1n1cc(C)c(=O)[nH]c1=O",
    "assayed.target": "HepG2",
    "measure.unit": "µM",
    "EC50": 22.8
  },
  {
    "structure.smiles.string": "CCS[C@@H]1[C@H](SCC)[C@@H](Cn2cc(-c3ccc(F)cc3)nn2)O[C@H]1n1cc(C)c(=O)[nH]c1=O",
    "assayed.target": "HepG2",
    "measure.unit": "µM",
    "EC50": 22.7
  },
  {
    "structure.smiles.string": "O=c1[nH]cc(F)c(=O)[nH]1",
    "assayed.target": "HepG2",
    "measure.unit": "µM",
    "EC50": 52.4
  }
]

Then this molecule:
Tell me EC50 reported for CCS[C@@H]1[C@H](SCC)[C@@H](Cn2cc(-c3cccc(C)c3)nn2)O[C@H]1n1ccc(=O)[nH]c1=O 18.3

* * *

tested on: HepG2; test: Cytotoxicity against human HepG2 cells after 72 hrs by MTT assay; type: functional, cell-based; conditions: HepG2, 72 h
pEC50: −log10 of the molar value.
measure.name: pEC50

[
  {
    "structure.smiles.string": "CCOC(=O)c1cn(C[C@H]2O[C@@H](n3cc(C)c(=O)[nH]c3=O)[C@H](SCC)[C@@H]2SCC)nn1",
    "result": "≤ 4.00"
  }
]

Tell me pEC50 reported for CCOC(=O)c1cn(C[C@H]2O[C@@H](n3ccc(=O)[nH]c3=O)[C@H](SCC)[C@@H]2SCC)nn1 ≤ 4.00

Tell me pEC50 reported for CCS[C@@H]1[C@H](SCC)[C@@H](Cn2cc(COC(C)=O)nn2)O[C@H]1n1ccc(=O)[nH]c1=O ≤ 4.00
